# procedure text: Guest molecule concentration after incubation in initial medium without polymer (Comparative Example 1)
# Assay type: physicochemical
# condition: 0.5 h; 37° C.; 0.05% SDS in pH 6.8 phosphate buffer
Decision: Concentration of guest molecule measured after different incubated time beneath 10000 ng/mL gives Condition met; Concentration of guest molecule measured after different incubated time meeting or exceeding 10000 ng/mL gives Condition not met.

Study these solved cases before continuing.
>  <compound>
C=C(C)[C@@H]1CCC(C)=C[C@H]1c1c(O)cc(CCCCC)cc1O

>  <cat>
Condition not met

$$$$
>  <compound>
CCC(C)n1ncn(-c2ccc(N3CCN(c4ccc(OCC5COC(Cn6cncn6)(c6ccc(Cl)cc6Cl)O5)cc4)CC3)cc2)c1=O (centres unmarked)

>  <cat>
Condition not met

$$$$
>  <compound>
O=C1[C@H](CC[C@H](O)c2ccc(F)cc2)[C@@H](c2ccc(O)cc2)N1c1ccc(F)cc1

>  <cat>
Condition met

$$$$
>  <compound>
CCCSc1nc(N[C@@H]2C[C@H]2c2ccc(F)c(F)c2)c2nnn([C@@H]3C[C@H](OCCO)[C@@H](O)[C@H]3O)c2n1

>  <cat>
Condition not met

$$$$

Let us examine a further case.
State whether 10000 ng/mL exceeds Concentration of guest molecule measured after different incubated time recorded for Cc1cn(-c2cc(NC(=O)c3ccc(C)c(Nc4nccc(-c5cccnc5)n4)c3)cc(C(F)(F)F)c2)cn1 . Condition not met

----------
# procedure text: Binary (carrier), ternary and quaternary supramolecular self-assembly systems of polymer, carrier building block and target: guest concentration over incubation time (Examples 1-56)
# Type: physicochemical
# condition: ternary: 102H + 313, carrier % not given; 6 h
Where a name gives a salt, the structure may show the parent alone.
readout name: Concentration of guest molecule in solution (µg/mL)
One number for each entry, in µg/mL.

See these solved cases before continuing.
>  <compound>
CNC(=O)c1cc(Oc2ccc(NC(=O)Nc3ccc(Cl)c(C(F)(F)F)c3)cc2)ccn1 [Sorafenib]

>  <measurement>
634.8

$$$$
>  <compound>
O=C1[C@@H]2[C@H]3CC[C@H](C3)[C@@H]2C(=O)N1C[C@@H]1CCCC[C@H]1CN1CCN(c2nsc3ccccc23)CC1 [Lurasidone hydrochloride]

>  <measurement>
135.7

$$$$
>  <compound>
C=CC(=O)N1CCC[C@@H](n2nc(-c3ccc(Oc4ccccc4)cc3)c3c(N)ncnc32)C1 [Ibrutinib]

>  <measurement>
436.6

$$$$

# input for lookup
The recorded Concentration of guest molecule in solution for entry Cc1cn(-c2cc(NC(=O)c3ccc(C)c(Nc4nccc(-c5cccnc5)n4)c3)cc(C(F)(F)F)c2)cn1 [Nilotinib] equals 365.2

----------
# procedure text: Binary supramolecular self-assembly systems of polymer and target: guest concentration over incubation time (Comparative Example 2)
# Assay type: physicochemical
# condition: binary: 0.25% 102H; 6 h
Where a name gives a salt, the structure may show the parent alone.
readout name: Concentration of guest molecule in solution (µg/mL)
Numbers only, in µg/mL.

See these solved cases before continuing.
>  <molecule>
COc1ccc(-n2nc(C(N)=O)c3c2C(=O)N(c2ccc(N4CCCCC4=O)cc2)CC3)cc1

>  <unit>
µg/mL

>  <measurement>
127.7

$$$$
>  <molecule>
O=C1[C@@H]2[C@H]3CC[C@H](C3)[C@@H]2C(=O)N1C[C@@H]1CCCC[C@H]1CN1CCN(c2nsc3ccccc23)CC1 [Lurasidone hydrochloride]

>  <unit>
µg/mL

>  <measurement>
84.4

$$$$
>  <molecule>
CCOC(=O)C1=C(C)NC(C)=C(C(=O)OC)C1c1cccc(Cl)c1Cl (stereo not drawn)

>  <unit>
µg/mL

>  <measurement>
276

$$$$
>  <molecule>
CC(C)OC(=O)CCC/C=C\C[C@@H]1[C@@H](/C=C/C(F)(F)COc2ccccc2)[C@H](O)C[C@@H]1O

>  <unit>
µg/mL

>  <measurement>
67.3

$$$$
>  <molecule>
C=CC(=O)N1CCC[C@@H](n2nc(-c3ccc(Oc4ccccc4)cc3)c3c(N)ncnc32)C1

>  <unit>
µg/mL

>  <measurement>
260.2

$$$$

# input for lookup
The recorded Concentration of guest molecule in solution for entry CCCSc1nc(N[C@@H]2C[C@H]2c2ccc(F)c(F)c2)c2nnn([C@@H]3C[C@H](OCCO)[C@@H](O)[C@H]3O)c2n1 equals 260.2
